This section presents compounds with their documented Percent Effect values.
Biological target: Chromo domain-containing protein 1 (Saccharomyces cerevisiae (strain ATCC 204508 / S288c) (Baker's yeast))
Assay: ScCHD-1 Enzyme Inhibition Assay; note: in the data most compounds retested in dose-response had high values
Format: functional
Set-up: scale not given: direction of the effect not stated beside the values
Details: 30 µM
measuredParameter: Percent Effect

In [3]: df
Out[3]:
                                    compound  measuredparameter  observed
 0  COCC1CN(Cc2cc(C)on2)Cc2cn(C)nc21 (stereo not given)     Percent Effect    -4.54%
 1   Cn1cc(CN2CC3(CCN(C(=O)c4cscn4)C3)C2)cn1     Percent Effect    -10.8%
 2             CCc1nc(NCCCOC)c2c(n1)c(C)nn2C     Percent Effect    -11.5%
 3  O=C(Cn1cc(C(=O)O)ccc1=O)NCc1ccc(F)c(Cl)c1     Percent Effect     -7.6%
 4      Cc1ccc(CNC(=O)N(Cc2ccccc2F)C2CC2)cn1     Percent Effect    -2.37%
 5  CNC(=O)N1C[C@H]2CC[C@@]3(N=C(c4ccccc4)NC3=O)[C@H]2C1     Percent Effect    -1.88%
 6       O=S(=O)(CCNCc1cccc2c1OCCO2)N1CCOCC1     Percent Effect    -2.36%
 7  Cc1cn2c(n1)CCC(NC(=O)CCC(F)(F)F)C2 (stereo not given)     Percent Effect    -6.39%
 8             COc1cc(C(=O)Nc2nc(C)no2)ccc1C     Percent Effect    -8.84%
 9  CCCN1CCC(N(Cc2ncc(C)o2)C(C)=O)C1 (stereo not given)     Percent Effect    -1.33%
10                N#Cc1cccc(SCCS(N)(=O)=O)c1     Percent Effect     -3.3%
11             CC(C)(C(=O)NCC(N)=O)c1ccccc1F     Percent Effect    -1.29%
12   CCc1ncc2c(n1)CN(Cc1nc(-c3ccsc3)oc1C)CC2     Percent Effect     2.49%
13  CC(c1nc(C2CC2)no1)N1CCN(c2ccc(C#N)cn2)CC1 (stereo not given)     Percent Effect    -2.39%
14       Cc1cc(-c2nnn(CCNS(C)(=O)=O)n2)ccc1F     Percent Effect    -2.42%
15            CC(C)N1CCC(NCc2cccnc2N(C)C)CC1     Percent Effect     -4.8%
16    CN1CCN(Cc2nnc(C3CCN(CC4CC4)CC3)n2C)CC1     Percent Effect    -3.38%
17  CCOc1cc(C(=O)N2CCCC(c3cc(C(N)=O)[nH]n3)C2)ccn1 (stereo not given)     Percent Effect   -0.329%
18  O=C(Cn1cccnc1=O)NC(Cc1cccs1)c1ccccn1 (stereo not given)     Percent Effect    -11.5%
19           CC(C)Oc1ncnc2c1CCN(Cc1cccs1)CC2     Percent Effect    -1.96%
20  Cc1cnn(CC2CCCN2CC(=O)N(C)Cc2ccc(C)o2)c1 (stereo not given)     Percent Effect     -2.6%
21        Cn1cc(-c2cnc(N3CCCC3)nc2)cc1C(=O)O     Percent Effect    -8.33%
22  CC(CN1CCOCC1)NC(=O)N(C)Cc1ccc(Cl)s1 (stereo not given)     Percent Effect    -2.62%
23  Cc1nn(C)c(C)c1CCC(=O)N1CCCC1Cn1cccn1 (stereo not given)     Percent Effect     1.96%
24  O=C(C1CC=CC1)N1CCc2c(COCc3ccncc3)cncc2C1     Percent Effect    -4.36%

====

Organism: Homo sapiens
Assay: To identify inhibition of the IFN signalling (Jak-Stat) pathway via expression of an eGFP reporter gene under the control of an IFN-stimulated response element (ISRE) containing MxA promoter.
Format: functional
Set-up: scale not given: direction of the effect not stated beside the values
Details: 30 µM
Binary call on Percent Effect with cut-off 10%: strictly below means true (1), and equality or higher means false (0).

                                    compound  classification
 0  CCN(Cc1ccc(OC)c(F)c1)C(=O)c1ccc(C)[nH]c1=O        true (1)
 1             N#Cc1ccc(CNCC2CCN(CCO)CC2)cc1       false (0)
 2  Cc1nn(C)c(C)c1C1CCCN1C(=O)c1cc[nH]n1 (configuration not stated)       false (0)
 3  Cc1cccc(N2CC[C@@H]3CN(C(=O)c4ccco4)CCO[C@@H]3C2)n1        true (1)
 4  Cc1cc(NC(=O)CN(C)C2CCCN(c3cccnn3)C2)n(C)n1 (configuration not stated)        true (1)
 5    Cc1cc(N2CCCN(C(=O)Cc3csc(C)n3)CC2)ccn1        true (1)
 6    CCn1cc(CN2CCCN(C(=O)CCc3ccncc3)CC2)cn1       false (0)
 7  COCC1Cn2nnc(-c3cnn(C)c3)c2CN1Cc1ccco1 (configuration not stated)        true (1)
 8  Cc1cc(C)n(CC2CCCCN2Cc2cscn2)n1 (configuration not stated)       false (0)
 9  CC(NC(=O)Cn1cccn1)c1cccnc1 (configuration not stated)       false (0)
10  CN(C)Cc1nn(C)c2c1CCN(S(=O)(=O)c1cccs1)C2       false (0)
11      O=C(NCc1ccc(OCC2CC2)nc1)c1c(F)cccc1F       false (0)

====

Target: Chromo domain-containing protein 1 (Saccharomyces cerevisiae (strain ATCC 204508 / S288c) (Baker's yeast))
Assay: ScCHD-1 Enzyme Inhibition Assay; note: in the data most compounds retested in dose-response had high values
Format: functional
Set-up: scale not given: direction of the effect not stated beside the values
Details: 30 µM
Each item that follows carries a reported Percent Effect.
measuredParameter: Percent Effect (%)

                                    molecule  observed
 0  COCc1cnc2n1CCN(C(=O)C1=CCCCC1)C2C (stereo not given)     -8.38
 1    CNc1nc(CNC(=O)Nc2ccccc2-c2noc(C)n2)cs1     -4.83
 2       CC(C)N1Cc2c(C(=O)N3CCOCC3)nn(C)c2C1      4.29
 3  Cc1cc(NC(=O)CN2CCN(c3nccs3)C(C)C2)n(C)n1 (stereo not given)      10.5
 4  O=C(c1cnn2c1OCCC2)N1CCN(C/C=C/c2ccccc2)CC1     -8.13
 5            CC(=O)N1CCC(Oc2ccc(C#N)cn2)CC1     -5.65
 6  Cc1cc(C)n(C2CN(Cc3noc(-c4ccccc4)n3)C2)n1   -0.0991
 7            COc1ccc(CCNC(=O)NC2CCCC2)cc1OC     -3.01
 8    COc1ccnc(N2CCN(C(=O)Cc3ccc(C)s3)CC2)n1      -9.7
 9  NCCn1nc(C2CCN(C(=O)CC3CCCCC3)C2)c2nccnc21 (stereo not given)     -1.74
10  Cc1occc1C(=O)N1CCC2(CCC(=O)N(CC(N)=O)C2)CC1     -2.07
11   Cc1nc(-c2ccsc2)ccc1C(=O)NCCC(=O)N1CCCC1     -11.3
12  Cc1nn(C)c(C)c1C1COCCN1c1ncnc2sccc12 (stereo not given)     -1.49
13  Cc1nn(C)c(C)c1NC(=O)CN1CCc2c(nc(C(C)C)n2C)C1     -2.17
14   Cc1ccc(C(=O)NCCCNS(C)(=O)=O)cc1-n1cccc1     -5.78
15  CC(=O)c1cn(CC(=O)NC(C(=O)O)C(C)C)c2ccccc12 (stereo not given)      3.17
16      Cc1cnc(CN(C)C2CCN(CCc3ccccn3)CC2)cn1     -6.34
17           Cc1noc(CN2CCC(c3ccnn3CCO)CC2)n1     -6.79
18             CCOCCNc1nc(C2CCCC2)nc2c1cnn2C      2.02
19     CCOC(=O)c1sc2ccsc2c1CNC(=O)C(C)(C)C#N      14.5
20     O=C(NCc1cc[nH]n1)N1CCN(c2ccccc2Cl)CC1     -10.1
21  Cc1noc(C)c1CNCC1CCN(CC(O)c2ccccc2)CC1 (stereo not given)       -18
22   Cc1ccc(C(=O)N2CCN(C(=O)Nc3ccccn3)CC2)o1     -16.4
23      Cc1cc(C)n(C2CN(CC(=O)NC3CCOCC3)C2)n1       -15
24  Cc1nc(C)n(CC2CCCN(Cc3nnc(-c4ccco4)o3)C2)n1 (stereo not given)     -1.67

====

Biological target: Proteasome subunit beta (Trypanosoma cruzi) (UniProt O96673)
Sequence (O96673 as listed by the source): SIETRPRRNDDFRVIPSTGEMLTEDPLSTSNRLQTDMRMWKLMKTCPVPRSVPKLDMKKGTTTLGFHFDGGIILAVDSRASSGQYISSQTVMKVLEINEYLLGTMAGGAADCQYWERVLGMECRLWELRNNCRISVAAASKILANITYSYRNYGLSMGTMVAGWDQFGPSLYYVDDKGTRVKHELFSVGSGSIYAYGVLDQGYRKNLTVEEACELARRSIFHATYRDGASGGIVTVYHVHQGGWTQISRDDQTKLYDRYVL
Assay: Trypanosoma cruzi proteasome chymotrypsin-like activity (TcProtChymo) assay. Note: in the data most compounds retested in dose-response had high values.
Assay type: functional
Parameters: scale not given: direction of the effect not stated beside the values
Conditions: 9.37 µM
Listed next: entries and their corresponding Percent Effect.
measuredParameter: Percent Effect (%)

In [3]: df
Out[3]:
                                   compound  measuredparameter  readingunit  observed
0  O=C(Cc1ccccc1F)N1C[C@@H]2COC[C@]2(COc2cccnc2)C1     Percent Effect            %      17.5
1     CCOc1ccc(NC(=O)c2cnc(N3CCCC3)nc2C)cc1     Percent Effect            %      5.22
2  Cc1nc(C2CCCN(C(=O)c3cccc(S(C)(=O)=O)c3)C2)no1 (stereo unspecified)     Percent Effect            %      12.3
3  c1ccc(OC[C@]23COC[C@H]2CN(c2ncccn2)C3)nc1     Percent Effect            %      12.7
4   O=C(CCc1cscn1)NS(=O)(=O)c1ccc2c(c1)CCC2     Percent Effect            %      3.33
5  Cc1cc(CN2CCN(C(=O)NC(C)c3cccnc3)CC2)on1 (stereo unspecified)     Percent Effect            %      10.7

Origin of the recorded values: ChEMBL document CHEMBL3988442
